Test system: MDA-MB-435
Assay: NCI tumour cell line growth inhibition, 48 h
Assay Readout: TGI (µM)

{"Compound": "CCOC(=O)c1cccc(N=NNc2cccc(C(=O)OCC)c2)c1", "Assay Readout": "TGI", "Comparison Symbol": ">", "Measured Result": 100}
{"Compound": "NC1CC(=O)c2c(I)sc(I)c21 (stereo not given)", "Assay Readout": "TGI", "Comparison Symbol": "=", "Measured Result": 38.7}
{"Compound": "COc1cc2c(cc1O)CCN[C@@]21CS[C@H]2c3c(OC(C)=O)c(C)c4c(c3C(COC1=O)N1C2C2NC(Cc3cc(C)c(OC)c(O)c32)[C@@H]1O)OCO4 (stereo not given in full)", "Assay Readout": "TGI", "Comparison Symbol": "<", "Measured Result": 0.01}
{"Compound": "CCCCCn1sc(=O)n(Cc2ccc(CNC(=O)C(C)c3ccc(CC(C)C)cc3)cc2)c1=O (stereo not given)", "Assay Readout": "TGI", "Comparison Symbol": "=", "Measured Result": 2.17}
{"Compound": "O=C(O)CCCCCNCc1cc2cc3c(cc2c2cc(OCc4ccccc4)ccc12)OCO3", "Assay Readout": "TGI", "Comparison Symbol": "=", "Measured Result": 3.3}
{"Compound": "O=C(c1ccccc1)c1nn(-c2cccc(Cl)c2)c2nc3nc(-c4ccccc4)cc(=O)n3nc12", "Assay Readout": "TGI", "Comparison Symbol": ">", "Measured Result": 25}
{"Compound": "O=C(C=P(c1ccccc1)(c1ccccc1)c1ccccc1)c1ccccc1-c1ccccc1C(=O)C=P(c1ccccc1)(c1ccccc1)c1ccccc1", "Assay Readout": "TGI", "Comparison Symbol": "=", "Measured Result": 1.11}
{"Compound": "COc1ccc2nc(-c3ccc(N)cc3)sc2c1", "Assay Readout": "TGI", "Comparison Symbol": ">", "Measured Result": 100}
{"Compound": "C#C[C@]1(O)CC[C@H]2[C@@H]3CCC4=C/C(=N/OC(=O)c5cccc6cc7ccccc7nc56)CC[C@@H]4[C@H]3CC[C@@]21CC", "Assay Readout": "TGI", "Comparison Symbol": ">", "Measured Result": 100}
{"Compound": "N#CC1=C(N)OC2=C(CCCc3ccc([N+](=O)[O-])cc32)C1c1ccc(Cl)cc1 (stereo not given)", "Assay Readout": "TGI", "Comparison Symbol": "=", "Measured Result": 65.5}
